B1: INTS3 (parent)
chain: DLNSKGKKREFRFHPIKETVVEEP

- Variants of: B1
- Assay: protein stability index of a GFP-peptide fusion (GPS, HEK-293T) (PSI 1-6); higher = more stable;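 note: lentivirally expressed fusions sorted by FACS into six bins by GFP to DsRed ratio, PSI derived from sequencing read proportions per bin multiplied by bin number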
- Condition context: c terminus: a fixed tail appended
Attribute measured: protein stability index
// response body must contain only the number

Check out these entries, answers already filled in.
Problem: Requested field: protein stability index. Item: DLNSKGKKREFRFHPIKESVVEEP
Result: 2.12

Problem: Requested field: protein stability index. Item: DLNSKGKKREFRFHPIKETVFEEP
Result: 1.96

Problem: Requested field: protein stability index. Item: DLNSKGKKREFRFHPIKRTVVEEP
Result: 1.87

Problem: Requested field: protein stability index. Item: DLNSKGKKREFRFHPIPETVVEEP
Result: 1.98

Problem: Requested field: protein stability index. Item: DLNSKGKKREDRFHPIKETVVEEP
Result: 4.88

Problem: Requested field: protein stability index. Item: DLNSKGKKREFRFAPIKETVVEEP
Result: 3.83

Problem: Requested field: protein stability index. Item: DLNSKGKKREPRFHPIKETVVEEP
Result: 4.39

Problem: Requested field: protein stability index. Item: DLNSKGKLREFRFHPIKETVVEEP
Result: 1.96

Problem: Requested field: protein stability index. Item: DLMSKGKKREFRFHPIKETVVEEP
Result: 1.77

Problem: Requested field: protein stability index. Item: DLNSKGKKLEFRFHPIKETVVEEP
Result: 1.78

Others:
Problem: Requested field: protein stability index. Item: DLNSKGKKREFRFHQIKETVVEEP
Result: 2.6

Problem: Requested field: protein stability index. Item: DLNSKGKKREFRFKPIKETVVEEP
Result: 3.91

Problem: Requested field: protein stability index. Item: DLNSKGKKREFRFHPIKETVVEEK
Result: 2.08

Problem: Requested field: protein stability index. Item: DLNSKGKQREFRFHPIKETVVEEP
Result: 2.77

Problem: Requested field: protein stability index. Item: DLNSKGKKRLFRFHPIKETVVEEP
Result: 1.94

Problem: Requested field: protein stability index. Item: DLWSKGKKREFRFHPIKETVVEEP
Result: 1.8

Problem: Requested field: protein stability index. Item: DLSSKGKKREFRFHPIKETVVEEP
Result: 1.76

Problem: Requested field: protein stability index. Item: DLNSKIKKREFRFHPIKETVVEEP
Result: 1.59

Problem: Requested field: protein stability index. Item: DLNSKGKCREFRFHPIKETVVEEP
Result: 1.98

Problem: Requested field: protein stability index. Item: DLNSHGKKREFRFHPIKETVVEEP
Result: 2.48

Problem: Requested field: protein stability index. Item: DLNSKGKKREFRFHPTKETVVEEP
Result: 2.12

Problem: Requested field: protein stability index. Item: DLNSKGKYREFRFHPIKETVVEEP
Result: 2.27
